- experimental.system: Oxoeicosanoid receptor 1 (Homo sapiens)
- Sequence (Q8TDS5 whole entry, the tested form may be a part): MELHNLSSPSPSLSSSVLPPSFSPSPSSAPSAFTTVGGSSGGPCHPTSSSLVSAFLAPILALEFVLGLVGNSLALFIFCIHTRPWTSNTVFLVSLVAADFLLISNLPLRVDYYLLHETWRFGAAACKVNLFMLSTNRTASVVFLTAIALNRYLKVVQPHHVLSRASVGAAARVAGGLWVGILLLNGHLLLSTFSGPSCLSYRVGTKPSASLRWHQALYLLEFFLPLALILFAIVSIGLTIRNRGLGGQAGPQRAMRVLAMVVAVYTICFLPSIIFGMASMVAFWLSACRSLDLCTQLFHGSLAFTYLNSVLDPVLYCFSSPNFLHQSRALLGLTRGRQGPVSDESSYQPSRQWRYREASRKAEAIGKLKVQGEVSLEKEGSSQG
- test.method.notes: Agonist activity at human PK-tagged OXER1 expressed in CHOK1 cells assessed as EA-tagged beta-arrestin recruitment by beta-galactosidase enzyme fragment complementation assay
measurement.type: EC50

compound	recorded.result
CCCCC/C=C\C/C=C\C/C=C\C=C\C(=O)CCCC(=O)O [5-OXO-ETE]	220 nM
CC/C=C\C/C=C\C/C=C\C/C=C\C/C=C\C=C\C(=O)CCC(=O)O	> 100000 nM
CC/C=C\C/C=C\C/C=C\C/C=C\C/C=C\C=C\C(=O)CCC(=O)OC	> 100000 nM
CC/C=C\C/C=C\C/C=C\C/C=C\C=C\C(=O)CCCC(=O)O	380 nM
CCCCC/C=C\C/C=C\C/C=C\C=C\C(=O)CCCC(=O)OC	1540 nM
CC/C=C\C/C=C\C/C=C\C/C=C\C=C\C(=O)CCCC(=O)OC	2080 nM
